Tested on: SK-MEL-28
Assay: NCI tumour cell line growth inhibition, 48 h
Calls of active or inactive are those of the source. Cut-off read from the data, not from the text of the source: active = GI50 up to about 1.1 µM and inactive = higher.
PARAMETER MEASURED: GI50

Worked cases, answers included:
| COMPOUND | TARGET OR TEST SYSTEM | GI50 |
| --- | --- | --- |
| COC(=O)c1ccc(/C=C(\c2ccc([N+](=O)[O-])o2)S(=O)(=O)c2ccc(NC(C)=O)cc2)o1 | SK-MEL-28 | 4.69 µM (inactive) |
| Cc1cc(S(=O)(=O)Nc2nc(N)n[nH]2)c(Cl)cc1Cl | SK-MEL-28 | > 10 µM (inactive) |
| Cc1ccc(-c2c(C#N)c(N)nc3c2CCS(=O)(=O)c2ccccc2-3)cc1 | SK-MEL-28 | 72.4 µM (inactive) |
| CN(C)CCCNC(=O)CCNC(=O)c1cc(NC(=O)c2cc(NC(=O)c3cc(NC(=O)c4nc(NC(=O)CCCNC(=O)c5cc(NC(=O)c6cc(NC(=O)c7cc(NC(=O)c8nccn8C)cn7C)cn6C)cn5C)cn4C)cn3C)cn2C)cn1C | SK-MEL-28 | > 100 µM (inactive) |
| COc1cc(/C=C/c2ccc(C)cc2)cc(OC)c1OC | SK-MEL-28 | 5.77 µM (inactive) |

// input: 2 compounds below; output: GI50 for each
1. O=C(O)CCC1CCc2cccc(OCC(=O)O)c2C1=O (stereo unspecified)
2. C[C@H](CCC(=O)O)[C@H]1CC[C@H]2[C@@H]3[C@H](O)C[C@@H]4C[C@H](O)CC[C@]4(C)[C@H]3CC[C@]12C [CHENODIOL]

Solution:
["> 100 µM (inactive)", "42.6 µM (inactive)"]
